procedure-details: Pharmacokinetic study in mice
Assay type: in vivo
condition-summary: mouse; IV (2 mg/kg), male CD1 mice, plasma
assay-readout: AUC(0-t) (ng·h/mL)
The response must be a number in ng·h/mL with no trailing unit.

query: I would be grateful if you could share the reported AUC(0-t) for N#Cc1ccc(N2CCN(Cc3ccc(Cc4ccc5c6c(cc(F)cc46)C(=O)N5C4CCC(=O)NC4=O)cc3)CC2)c(F)c1 (stereo not shown) .
result: 17200

* * *

procedure-details: Pharmacokinetic study in mice
Format: in vivo
condition-summary: mouse; Table 4; PO (10 mg/kg), male CD1 mice, plasma
assay-readout: AUC(0-t) (ng·h/mL)
The response must be a number in ng·h/mL with no trailing unit.

query: I would be grateful if you could share the reported AUC(0-t) for N#Cc1ccc(N2CCN(Cc3ccc(Cc4ccc5c6c(cc(F)cc46)C(=O)N5C4CCC(=O)NC4=O)cc3)CC2)c(F)c1 (stereo not shown) .
result: 23300

* * *

measured-on: HiBiT-tagged IKZF1 (Homo sapiens, UniProt Q13422+Q96SW2)
Construct: expressed in transfected cells; host or cells: HT-1080 (ATCC CCL-121), lentiviral transduction
Sequence (Q13422 whole entry): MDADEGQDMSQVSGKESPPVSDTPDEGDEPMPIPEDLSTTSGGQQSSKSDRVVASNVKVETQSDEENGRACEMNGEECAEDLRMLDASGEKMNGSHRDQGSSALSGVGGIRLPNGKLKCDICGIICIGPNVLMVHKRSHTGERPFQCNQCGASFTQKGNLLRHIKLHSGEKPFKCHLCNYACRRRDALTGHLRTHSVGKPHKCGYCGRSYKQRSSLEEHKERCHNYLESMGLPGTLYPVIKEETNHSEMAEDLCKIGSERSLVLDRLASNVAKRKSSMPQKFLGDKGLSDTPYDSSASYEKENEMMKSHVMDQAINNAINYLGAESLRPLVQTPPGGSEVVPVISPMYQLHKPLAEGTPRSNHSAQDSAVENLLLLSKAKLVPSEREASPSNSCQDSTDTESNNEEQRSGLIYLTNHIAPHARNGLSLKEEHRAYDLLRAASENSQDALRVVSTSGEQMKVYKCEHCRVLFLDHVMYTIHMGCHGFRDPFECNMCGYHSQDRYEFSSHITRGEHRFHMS
Sequence (Q96SW2 whole entry): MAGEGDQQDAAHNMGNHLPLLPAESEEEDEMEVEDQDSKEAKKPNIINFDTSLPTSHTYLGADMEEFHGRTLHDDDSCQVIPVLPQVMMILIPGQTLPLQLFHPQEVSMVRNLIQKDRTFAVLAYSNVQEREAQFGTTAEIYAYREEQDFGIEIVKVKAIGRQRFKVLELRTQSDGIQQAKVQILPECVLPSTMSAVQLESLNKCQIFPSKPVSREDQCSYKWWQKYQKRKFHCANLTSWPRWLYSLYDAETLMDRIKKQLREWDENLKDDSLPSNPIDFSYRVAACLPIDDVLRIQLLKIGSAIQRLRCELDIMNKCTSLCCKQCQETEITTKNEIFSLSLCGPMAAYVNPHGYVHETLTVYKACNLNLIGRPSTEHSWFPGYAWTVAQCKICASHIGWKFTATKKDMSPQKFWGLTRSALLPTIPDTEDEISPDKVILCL
Sequence (Q16531 whole entry partner): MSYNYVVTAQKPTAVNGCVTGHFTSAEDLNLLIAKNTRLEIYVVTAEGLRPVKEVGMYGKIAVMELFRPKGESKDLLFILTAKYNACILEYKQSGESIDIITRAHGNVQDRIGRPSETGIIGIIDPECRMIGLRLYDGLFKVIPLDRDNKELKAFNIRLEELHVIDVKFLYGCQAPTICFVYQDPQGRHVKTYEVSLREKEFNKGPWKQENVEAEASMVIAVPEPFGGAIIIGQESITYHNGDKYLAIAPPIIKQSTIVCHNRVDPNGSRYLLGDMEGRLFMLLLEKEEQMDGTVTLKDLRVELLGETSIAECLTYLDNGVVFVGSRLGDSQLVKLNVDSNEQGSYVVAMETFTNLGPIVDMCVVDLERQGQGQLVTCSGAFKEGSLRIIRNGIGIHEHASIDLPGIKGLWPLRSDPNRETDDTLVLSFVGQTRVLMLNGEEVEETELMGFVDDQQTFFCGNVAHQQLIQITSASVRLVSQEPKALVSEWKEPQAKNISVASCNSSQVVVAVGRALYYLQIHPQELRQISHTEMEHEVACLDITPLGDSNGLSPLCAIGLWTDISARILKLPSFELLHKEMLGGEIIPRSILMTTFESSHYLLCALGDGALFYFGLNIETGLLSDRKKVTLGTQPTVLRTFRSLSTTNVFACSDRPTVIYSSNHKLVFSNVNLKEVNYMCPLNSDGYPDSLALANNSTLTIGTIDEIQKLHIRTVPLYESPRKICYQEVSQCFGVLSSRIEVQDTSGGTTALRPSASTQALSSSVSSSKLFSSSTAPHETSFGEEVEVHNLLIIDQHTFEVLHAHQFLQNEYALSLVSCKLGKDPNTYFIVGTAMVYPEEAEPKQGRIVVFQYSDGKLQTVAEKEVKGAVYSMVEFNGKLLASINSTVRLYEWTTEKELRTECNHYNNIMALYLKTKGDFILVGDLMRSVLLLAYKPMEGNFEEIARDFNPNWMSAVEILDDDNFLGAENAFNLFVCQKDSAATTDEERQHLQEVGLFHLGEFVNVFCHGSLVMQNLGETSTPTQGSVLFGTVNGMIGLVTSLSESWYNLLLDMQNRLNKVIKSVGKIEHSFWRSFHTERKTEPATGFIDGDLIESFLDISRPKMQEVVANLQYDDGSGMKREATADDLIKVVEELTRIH
procedure-details: Degradation assay for IKZF1 (HiBiT tag bioluminescence assay)
Assay type: cell-based
condition-summary: HT-1080, Table 2; HT-1080 IKZF1 HiBiT reporter cells; all compounds tested on the same day
assay-readout: Dmax

molecule	data-value
O=C1CCC(N2C(=O)c3cccc4c(Cc5ccc(CN6CCOCC6)cc5)ccc2c34)C(=O)N1 (stereo not drawn)	93.5%
N#Cc1ccc(N2CCN(Cc3ccc(Cc4ccc5c6c(cc(F)cc46)C(=O)N5[C@H]4CCC(=O)NC4=O)cc3)CC2)c(F)c1 (single isomer, unassigned)	93.8%
N#Cc1ccc(N2CCN(Cc3ccc(Cc4ccc5c6c(cc(Br)cc46)C(=O)N5C4CCC(=O)NC4=O)cc3)CC2)c(F)c1 (stereo not drawn)	92.2%
N#Cc1ccc(N2CCN(Cc3ccc(Cc4ccc5c6c(cccc46)C(=O)N5C4CCC(=O)NC4=O)c(F)c3)CC2)c(F)c1 (stereo not drawn)	96.1%
N#Cc1ccc(N2CCN(Cc3ccc(Cc4ccc5c6c(cc(Cl)cc46)C(=O)N5C4CCC(=O)NC4=O)cc3)CC2)c(F)c1 (stereo not drawn)	41.1%
N#Cc1ccc(N2CCN(Cc3ccc(Cc4ccc5c6c(ccc(F)c46)C(=O)N5C4CCC(=O)NC4=O)cc3)CC2)c(F)c1 (stereo not drawn)	89.9%

query: Query the reported Dmax for HiBiT-tagged IKZF1 (Homo sapiens, UniProt Q13422+Q96SW2); item: N#Cc1ccc(N2CCN(Cc3ccc(Cc4ccc5c6c(cc(F)cc46)C(=O)N5[C@@H]4CCC(=O)NC4=O)cc3)CC2)c(F)c1 (single isomer, unassigned)
result: 93.1%

query: Query the reported Dmax for HiBiT-tagged IKZF1 (Homo sapiens, UniProt Q13422+Q96SW2); item: N#Cc1ccc(N2CCN(Cc3ccc(Cc4ccc5c6c(c(F)ccc46)C(=O)N5C4CCC(=O)NC4=O)cc3)CC2)c(F)c1 (stereo not drawn)
result: 60.1%

query: Query the reported Dmax for HiBiT-tagged IKZF1 (Homo sapiens, UniProt Q13422+Q96SW2); item: N#Cc1ccc(N2CCN(Cc3ccc(Cc4ccc5c6c(cccc46)C(=O)N5C4CCC(=O)NC4=O)cc3)CC2)c(F)c1 (stereo not drawn)
result: 96.9%

* * *

measured-on: HiBiT-tagged SALL4 (Homo sapiens, UniProt Q96SW2+Q9UJQ4)
Construct: expressed in transfected cells; host or cells: HT-1080 (ATCC CCL-121), lentiviral transduction
Sequence (Q9UJQ4 whole entry, one chain of several): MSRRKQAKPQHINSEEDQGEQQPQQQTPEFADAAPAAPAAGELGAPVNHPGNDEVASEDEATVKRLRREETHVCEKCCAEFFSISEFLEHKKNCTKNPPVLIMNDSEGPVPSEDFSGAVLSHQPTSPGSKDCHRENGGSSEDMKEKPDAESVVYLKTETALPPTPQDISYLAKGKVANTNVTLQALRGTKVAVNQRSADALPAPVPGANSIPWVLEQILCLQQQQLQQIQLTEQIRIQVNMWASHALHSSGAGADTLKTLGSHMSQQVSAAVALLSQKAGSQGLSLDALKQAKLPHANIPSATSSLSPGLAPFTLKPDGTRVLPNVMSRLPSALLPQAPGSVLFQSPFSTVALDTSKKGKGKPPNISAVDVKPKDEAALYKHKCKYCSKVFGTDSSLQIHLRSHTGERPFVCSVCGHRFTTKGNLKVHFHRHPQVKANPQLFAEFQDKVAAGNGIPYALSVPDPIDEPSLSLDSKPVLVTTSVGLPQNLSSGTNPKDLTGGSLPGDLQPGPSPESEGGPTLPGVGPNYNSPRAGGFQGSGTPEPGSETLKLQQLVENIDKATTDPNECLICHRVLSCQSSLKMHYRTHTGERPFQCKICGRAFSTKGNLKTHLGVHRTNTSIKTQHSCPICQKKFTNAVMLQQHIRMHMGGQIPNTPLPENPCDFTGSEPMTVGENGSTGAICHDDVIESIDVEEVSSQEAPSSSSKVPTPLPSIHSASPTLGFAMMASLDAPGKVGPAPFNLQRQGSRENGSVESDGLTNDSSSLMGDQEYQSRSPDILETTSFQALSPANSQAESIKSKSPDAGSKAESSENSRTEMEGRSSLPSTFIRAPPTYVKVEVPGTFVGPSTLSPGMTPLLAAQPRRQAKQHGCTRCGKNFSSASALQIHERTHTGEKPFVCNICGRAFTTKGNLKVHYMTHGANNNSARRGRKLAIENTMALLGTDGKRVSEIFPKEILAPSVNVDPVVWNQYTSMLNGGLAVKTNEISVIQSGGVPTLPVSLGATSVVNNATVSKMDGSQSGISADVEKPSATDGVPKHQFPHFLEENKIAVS
procedure-details: Degradation assay for SALL4 (HiBiT tag bioluminescence assay)
Type: cell-based
condition-summary: Table 2; HT-1080 SALL4 HiBiT reporter cells; all compounds tested on the same day; read-out: HiBiT SALL4: DC50
Protocol: About 10,000 cells in complete DMEM cell culture media were seeded per well. […] Luminescence was then measured with an EnVision plate reader (PerkinElmer) or a PHERAstar plate reader (BMG Labtech). […] IKZF1 or SALL4 levels in compound-treated wells were normalized to that of DMSO control and expressed as Percent of Control (PoC, y). […] A=Ymin (lowest IKZF1 or SALL4 level normalized to DMSO control in response to compound treatment, as determined by curve fit) […]
Decision: DC50 beneath 0.3 µM gives 1; DC50 meeting or exceeding 0.3 µM gives 0.

compound	assigned-class
N#Cc1ccc(N2CCN(Cc3ccc(Cc4ccc5c6c(ccc(F)c46)C(=O)N5C4CCC(=O)NC4=O)cc3)CC2)c(F)c1 (stereo not drawn)	1
N#Cc1ccc(N2CCN(Cc3ccc(Cc4ccc5c6c(cc(F)cc46)C(=O)N5[C@H]4CCC(=O)NC4=O)cc3)CC2)c(F)c1 (single isomer, unassigned)	1
N#Cc1ccc(N2CCN(Cc3ccc(Cc4ccc5c6c(cc(Cl)cc46)C(=O)N5C4CCC(=O)NC4=O)cc3)CC2)c(F)c1 (stereo not drawn)	0

query: State whether 0.3 µM exceeds DC50 recorded for N#Cc1ccc(N2CCN(Cc3ccc(Cc4ccc5c6c(cccc46)C(=O)N5C4CCC(=O)NC4=O)cc3)CC2)c(F)c1 (stereo not drawn) .
result: 1

query: State whether 0.3 µM exceeds DC50 recorded for N#Cc1ccc(N2CCN(Cc3ccc(Cc4ccc5c6c(c(F)ccc46)C(=O)N5C4CCC(=O)NC4=O)cc3)CC2)c(F)c1 (stereo not drawn) .
result: 0

query: State whether 0.3 µM exceeds DC50 recorded for N#Cc1ccc(N2CCN(Cc3ccc(Cc4ccc5c6c(cc(Br)cc46)C(=O)N5C4CCC(=O)NC4=O)cc3)CC2)c(F)c1 (stereo not drawn) .
result: 0

query: State whether 0.3 µM exceeds DC50 recorded for N#Cc1ccc(N2CCN(Cc3ccc(Cc4ccc5c6c(cccc46)C(=O)N5C4CCC(=O)NC4=O)c(F)c3)CC2)c(F)c1 (stereo not drawn) .
result: 1

query: State whether 0.3 µM exceeds DC50 recorded for O=C1CCC(N2C(=O)c3cccc4c(Cc5ccc(CN6CCOCC6)cc5)ccc2c34)C(=O)N1 (stereo not drawn) .
result: 1

* * *

procedure-details: Pharmacokinetic study in mice
Type: in vivo
condition-summary: mouse; IV (2 mg/kg), male CD1 mice, plasma
assay-readout: clearance (mL/min/kg)
The response must be a number in mL/min/kg with no trailing unit.

query: I would be grateful if you could share the reported clearance for N#Cc1ccc(N2CCN(Cc3ccc(Cc4ccc5c6c(cc(F)cc46)C(=O)N5C4CCC(=O)NC4=O)cc3)CC2)c(F)c1 (stereo not shown) [Compound 9] .
result: 1.57

* * *

procedure-details: Pharmacokinetic study in mice
Format: in vivo
condition-summary: mouse; Table 5; PO (10 mg/kg), male CD1 mice, plasma
Source text: Objective: The objective of this study was to determine the pharmacokinetics of test compound following a single intravenous (IV) bolus dose and a single oral (PO) administration in male CD1 mice by quantifying the concentrations of the test compound at different times in plasma using LC/MS/MS method. Materials: Male CD1 mouse (20-30 g, 6-8 weeks, Zhejiang Vital River Laboratory Animal Technology Co., Ltd.). […]
assay-readout: AUC(0-t)

query: I would be grateful if you could share the reported AUC(0-t) for N#Cc1ccc(N2CCN(Cc3ccc(Cc4ccc5c6c(cc(F)cc46)C(=O)N5[C@H]4CCC(=O)NC4=O)cc3)CC2)c(F)c1 (single isomer, unassigned) [Compound 9-B] .
result: 73600 ng·h/mL

* * *

measured-on: HiBiT-tagged SALL4 (Homo sapiens, UniProt Q96SW2+Q9UJQ4)
Construct: expressed in transfected cells; host or cells: HT-1080 (ATCC CCL-121), lentiviral transduction
procedure-details: Degradation assay for SALL4 (HiBiT tag bioluminescence assay)
Assay type: cell-based
condition-summary: HT-1080, Table 1; HT-1080 SALL4 HiBiT reporter cells; maximum percentage of protein degradation
assay-readout: Dmax (%)
The response must be a number in % with no trailing unit.

molecule	assay-readout	data-value
N#Cc1ccc2c(c1)OC[C@H]1CN(Cc3ccc(Cc4ccc5c6c(cccc46)C(=O)N5C4CCC(=O)NC4=O)cc3)CCN21 (some centres unmarked) [Compound 3]	Dmax	68
O=C1CCC(N2C(=O)c3cc(F)cc4c(Cc5ccc(CN6CC(N7CCOCC7)C6)cc5F)ccc2c34)C(=O)N1 (centres unmarked) [Compound 6]	Dmax	33.7
O=C1CCC(N2C(=O)c3cc(F)cc4c(Cc5ccc(CN6CCC7(CCCO7)CC6)cc5F)ccc2c34)C(=O)N1 (centres unmarked) [Compound 7]	Dmax	45.4
N#Cc1ccc(N2CCN(Cc3ccc(Cc4ccc5c6c(cc(F)cc46)C(=O)N5[C@@H]4CCC(=O)NC4=O)cc3)CC2)c(F)c1 (single isomer, unassigned) [Compound 9-A]	Dmax	55.2
N#Cc1ccc2c(c1)OC[C@H]1CN(Cc3ccc(Cc4ccc5c6c(cc(F)cc46)C(=O)N5C4CCC(=O)NC4=O)cn3)CCN21 (some centres unmarked) [Compound 2]	Dmax	53.2

query: I would be grateful if you could share the reported Dmax for N#Cc1ccc(N2CCN(Cc3ccc(Cc4ccc5c6c(cc(F)cc46)C(=O)N5[C@H]4CCC(=O)NC4=O)cc3)CC2)c(F)c1 (single isomer, unassigned) [Compound 9-B] .
result: 59.5

query: I would be grateful if you could share the reported Dmax for O=C1CCC(N2C(=O)c3cc(F)cc4c(Cc5ccc(CN6CCOCC6)cc5)ccc2c34)C(=O)N1 (centres unmarked) [Compound 12] .
result: 32.5

query: I would be grateful if you could share the reported Dmax for N#Cc1ccc2c(c1)OC[C@H]1CN(Cc3ccc(Cc4ccc5c6c(cc(F)cc46)C(=O)N5C4CCC(=O)NC4=O)cc3)CCN21 (some centres unmarked) [Compound 1] .
result: 57.4

query: I would be grateful if you could share the reported Dmax for N#Cc1cnc2c(c1)OC[C@H]1CN(Cc3ccc(Cc4ccc5c6c(cccc46)C(=O)N5C4CCC(=O)NC4=O)c(F)c3)CCN21 (some centres unmarked) [Compound 4] .
result: 68.6

query: I would be grateful if you could share the reported Dmax for CC(C)(C)N1CCN(Cc2ccc(Cc3ccc4c5c(cc(F)cc35)C(=O)N4C3CCC(=O)NC3=O)c(F)c2)CC1 (centres unmarked) [Compound 13] .
result: 49.1

query: I would be grateful if you could share the reported Dmax for N#Cc1ccc(N2CCN(Cc3ccc(Cc4ccc5c6c(cc(F)cc46)C(=O)N5C4CCC(=O)NC4=O)cc3)CC2)c(F)c1 (centres unmarked) [Compound 9] .
result: 58.1

The reported numbers originate from patent US20240360150A1.
